Entry source: the supplement of paper PMC10567573

Provide the recorded protein stability index for the entries that follow.
B1: ALDH8A1 (parent)
chain: FTGSQPTAERITQLSAPHCKKLSL

variants of: B1; experiment: protein stability index of a GFP-peptide fusion (GPS, HEK-293T) (PSI 1-6); higher = more stable; details: c terminus: a fixed tail appended;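 also: lentivirally expressed fusions sorted by FACS into six bins by GFP to DsRed ratio, PSI derived from sequencing read proportions per bin multiplied by bin number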
Write the value as a bare number.

Would you mind telling me what protein stability index value was observed for F1D ?
4.38

Request the reported protein stability index associated with A16H
2.13

Look up protein stability index: P17K
2.12

# query: protein stability index of entry K20N
2.53

Could you tell me which protein stability index is on file for H18L ?
2.46

Quick one: protein stability index of S23M ?
2.27

// protein stability index lookup, key: T7D
2.98

What value of measured protein stability index is listed for R10A ?
2.31

Which measured protein stability index value corresponds to L22G ?
2.88

Look up protein stability index: P6F
1.9

Any idea what protein stability index was measured for F1R ?
3.78

Query (variant): A16T ; field requested: protein stability index
2.63

Entry P6W has what protein stability index?
3.07

// lookup protein stability index for L24F
1.97

protein stability index lookup needed for I11S , thanks.
2.22

What value of protein stability index has been recorded for this entry: C19A
2.35

Field request: protein stability index | item: K21R
2.41

Field request: protein stability index | item: S23T
1.88

Consider the variant shown here: C19T What is its recorded protein stability index?
2.45

Need protein stability index, item L14K
2.73

For the variant shown here, T7P , give the reported protein stability index.
2.67

Field request: protein stability index | item: P17H
2.34

Dear colleague, I am looking for the recorded protein stability index of the following variant: K20T
2.19

Requested field: protein stability index. Item: S4Q
2.02

Consider the variant T2Y and give its measured protein stability index.
3.35

Give the measured protein stability index of L24Q .
2.9

Consider the variant S15I and give its measured protein stability index.
2.28

Endpoint output: protein stability index of Q13P . Value?
2.16

Entry H18D : reported protein stability index = ?
3.24

Request the reported protein stability index associated with P6Y
1.92

Consider the variant shown here: T12V What is its recorded protein stability index?
2.15

# lookup: protein stability index of T12D
2.32

Fill in the blank: the reported protein stability index of L22D is ____.
2.67

protein stability index for Q5W ?
4.02

What does the record list as protein stability index for K20A ?
2.2

Suppose we examine the variant K21V ; what protein stability index value has been reported?
2.22

I'd like to know its protein stability index. The variant in question is T7Q
2.86

Recorded protein stability index for T7G , please?
2.11

Which measured protein stability index value corresponds to P17V ?
1.96

Entry C19Y : reported protein stability index = ?
1.68

// returns reported protein stability index for input A16I
2.25

Find the recorded protein stability index belonging to L14T and report it.
2.87

Item A8E has what recorded protein stability index?
2.6

Recorded protein stability index of P17Q , please.
2.48

Request the reported protein stability index associated with K20P
2.3

Data request, read-out protein stability index, for S23I
2.15

Using the record for L22F , report its protein stability index.
1.92

Requested read-out: protein stability index. Entry: H18N
2.11

Could you tell me which protein stability index is on file for P6R ?
2.15

Fill blank: measured protein stability index of the variant T2P is ____.
3.41

Which protein stability index reading was recorded for the variant L14I ?
2.53

# input variant: T2I ; wanted: its protein stability index
2.07

Please give the measured protein stability index for this variant: Q5F
1.68

Consider the variant shown here: T7A What is its recorded protein stability index?
3.05

GET /values?readout=protein stability index&item= K21Y
2.1

Would you kindly share the measured protein stability index for K21P ?
2.32

Consider the variant shown here: Q13R What is its recorded protein stability index?
1.91

Name the reported protein stability index value associated with the variant Q13N
2.2

Query (variant): Q13M ; field requested: protein stability index
2.03

Would you mind telling me what protein stability index value was observed for S23R ?
1.79

Value lookup for protein stability index; key = K20V
1.93

Using the record for Q13A , report its protein stability index.
2.31

Entry I11M has what protein stability index?
2.61

Param item = L24I ; retrieve measured protein stability index.
2.04

Dear colleague, I am looking for the recorded protein stability index of the following variant: E9A
1.96

Item under review: E9C . Reported protein stability index?
2.14

Which protein stability index is reported for this variant? G3N
2.62

So what's the measured protein stability index for this one? T2S
3.11

Entry under review: Q5Y . Reported protein stability index?
2.36

Name the recorded protein stability index for S23C .
1.78

Using the record for K21F , report its protein stability index.
1.9

// lookup protein stability index for C19H
2.33

Recorded protein stability index for P6T , please?
1.77

Recorded protein stability index for L24V , please?
2.38

State the recorded protein stability index for this entry: L24D
3.23

Would you mind telling me what protein stability index value was observed for G3S ?
2.65

Would you mind telling me what protein stability index value was observed for Q13E ?
2.5

// protein stability index lookup, key: S15C
2.34

Can you look up the measured protein stability index of Q5K for me?
2.06

I am curious: what protein stability index value has been reported for Q5R ?
2.39

Need protein stability index, item P17C
2.13

What value of protein stability index has been reported for the following variant? T7W
1.2

Could you tell me which protein stability index is on file for F1K ?
3.96

Which protein stability index reading was recorded for the variant S4V ?
2.75

Can you share its protein stability index? I mean this variant: A16R
2.43

GET /values?readout=protein stability index&item= K21M
2.45

Field request: protein stability index | item: P17S
2.18

Item under review: P6N . Reported protein stability index?
2.71

# query: protein stability index of entry A8R
2.6

Which protein stability index is reported for this variant? Q13K
2.48

Returns the measured protein stability index for the input variant. Input: I11T
2.84
